- System: Escherichia coli TOP10
- experimental details: shrunken log2 fold change of peptide-encoding DNA abundance (4.5 h post-induction vs induction); higher = less antimicrobial activity (less host growth inhibition)
- setup conditions: time post-induction: 4.5 h; library: site-saturation at positions 5, 18, 19, 20
observation type: shrunken log2 fold change
When you answer, write just the number.

## Task Param item = `RRIRQRPPRLPRPRPRPMPAPRP` ; retrieve measured shrunken log2 fold change.
## Result 0.178

Further cases:
## Task Param item = `RRIRGRPPRLPRPRPRPRYPPRP` ; retrieve measured shrunken log2 fold change.
## Result 0.232

## Task Param item = `RRIRVRPPRLPRPRPRPCGFPRP` ; retrieve measured shrunken log2 fold change.
## Result 0.624

## Task Param item = `RRIRVRPPRLPRPRPRPQHCPRP` ; retrieve measured shrunken log2 fold change.
## Result 0.0856

----------
- Test system: Escherichia coli TOP10
- experimental details: shrunken log2 fold change of peptide-encoding DNA abundance (4.5 h post-induction vs induction); higher = less antimicrobial activity (less host growth inhibition)
- setup conditions: time post-induction: 4.5 h; library: site-saturation at positions 5, 18, 19, 20
observation type: shrunken log2 fold change
When you answer, write just the number.

## Task Param item = `RRIRERPPRLPRPRPRPLPGPRP` ; retrieve measured shrunken log2 fold change.
## Result -0.165

## Task Param item = `RRIRNRPPRLPRPRPRPTMWPRP` ; retrieve measured shrunken log2 fold change.
## Result -0.0923

## Task Param item = `RRIRYRPPRLPRPRPRPSMSPRP` ; retrieve measured shrunken log2 fold change.
## Result -1.19

Further cases:
## Task Param item = `RRIRRRPPRLPRPRPRPTNEPRP` ; retrieve measured shrunken log2 fold change.
## Result 0.0166

----------
- Test system: Escherichia coli TOP10;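 also: peptides expressed intracellularly from a pBAD plasmid library in pooled LB shake-flask culture, induced with 0.3% L-arabinose, DNA abundance read by NGS, three biological replicates, DESeq2 with apeglm shrinkage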
- experimental details: shrunken log2 fold change of peptide-encoding DNA abundance (4.5 h post-induction vs induction); higher = less antimicrobial activity (less host growth inhibition)
- setup conditions: time post-induction: 4.5 h; library: site-saturation at positions 5, 18, 19, 20
shrunken log2 fold change overview
When you answer, write just the number.

These recorded examples may help you get a feel for the data.
## Task What reported shrunken log2 fold change corresponds to `RRIRRRPPRLPRPRPRPNWSPRP` on Escherichia coli TOP10?
## Result -0.0147

## Task What reported shrunken log2 fold change corresponds to `RRIRLRPPRLPRPRPRPFATPRP` on Escherichia coli TOP10?
## Result -0.0878

## Task What reported shrunken log2 fold change corresponds to `RRIRERPPRLPRPRPRPEDTPRP` on Escherichia coli TOP10?
## Result -0.343

## Task What reported shrunken log2 fold change corresponds to `RRIRYRPPRLPRPRPRPLCFPRP` on Escherichia coli TOP10?
## Result -0.727

## Task What reported shrunken log2 fold change corresponds to `RRIRERPPRLPRPRPRPSQPPRP` on Escherichia coli TOP10?
## Result 0.0471

## Task What reported shrunken log2 fold change corresponds to `RRIRCRPPRLPRPRPRPEYYPRP` on Escherichia coli TOP10?
## Result -0.159

## Task What reported shrunken log2 fold change corresponds to `RRIRCRPPRLPRPRPRPDEIPRP` on Escherichia coli TOP10?
## Result 0.146

## Task What reported shrunken log2 fold change corresponds to `RRIRIRPPRLPRPRPRPYMAPRP` on Escherichia coli TOP10?
## Result -0.281

Further cases:
## Task What reported shrunken log2 fold change corresponds to `RRIRIRPPRLPRPRPRPIFEPRP` on Escherichia coli TOP10?
## Result -0.0533

## Task What reported shrunken log2 fold change corresponds to `RRIRKRPPRLPRPRPRPRYWPRP` on Escherichia coli TOP10?
## Result 0.173

## Task What reported shrunken log2 fold change corresponds to `RRIRFRPPRLPRPRPRPQIAPRP` on Escherichia coli TOP10?
## Result 0.111
